- Protocol Notes: NCI Yeast Anticancer Drug Screen. Data for the sgs1 mgt1 strain (AID 161);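 further: 0% = growth of cultures given vehicle only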
- Condition Details: S. cerevisiae sgs1 mgt1 strain, at 50.0 µM (retest, dose inferred, filed as 5.0), active compounds read high
This is part of a sample that, as a whole, favours compounds with a hit. Of some 79,000 tested, about 15% had one in any assay.
Readout Label: growth inhibition (%)
State just the number; it will be interpreted in %.

stdin: Reported growth inhibition, molecule O=[N+]([O-])c1ccc2c(c1)/C(=C/c1ccc(O)cc1)c1ccccc1-2 : ____
stdout: 82

====

- Protocol Notes: NCI Yeast Anticancer Drug Screen. Data for the mlh1 rad18 strain (AID 175)
- Condition Details: S. cerevisiae mlh1 rad18 strain growth inhibition; at 5.0 µM (retest, dose inferred, filed as 0.5)
Compounds without any hit were thinned out: in the full panel of roughly 79,000, 15% have a hit. Active and inactive are the calls of the source. Rule as the data show it: active = growth inhibition above about 70%; inactive = the rest.
Outcomes you can answer with include only these: TRUE = active, FALSE = inactive

>>> print(df.to_string())
                                   molecule  assigned_label
0  CCOC(=O)c1sc2c(c1O)c(=O)n(-c1ccccc1)c(=S)n2-c1ccccc1            TRUE
1  CNC(=O)OCc1c(COC(=O)NC)c(-c2ccc(OC)cc2)n2c1CCC2           FALSE
2  C=C1CC23CCC4C(C)(C(=O)O)CCCC4(C)C2CCC1C3 (stereo not given)           FALSE
3  CC1CCC(C(O)(C(=O)O)C2CCC(C)CC2)CC1 (stereo not given)           FALSE
4             COC(=O)CCN1c2ccccc2Sc2ccccc21           FALSE
5                COC(=O)c1ccc(-c2ccccc2)cc1           FALSE
6        CCCCCCSc1nc2ccc(N=Cc3ccccc3O)cc2s1            TRUE
7  [N-]=[N+]=CC(=O)CCC(NC(=O)OCc1ccccc1)C(=O)OCc1ccccc1 (stereo not given)            TRUE
8  O=C(Nc1ccc(Cl)cc1)Nc1nnc(/C=C/c2ccc(Cl)c(Cl)c2)o1           FALSE
9  CC1SC2(C(=O)Nc3ccc([N+](=O)[O-])cc32)N(c2ccc(Cl)cc2)C1=O (stereo not given)           FALSE

Please look at the following molecule next.
stdin: Could you kindly confirm the outcome this assay logged for CC1([N+](=O)[O-])C(=O)C2(N3CCOCC3)CCCC2C1c1ccccc1 (stereo not given) ?
stdout: FALSE
